biological target: T1, HER2-Fc (UniProt P04626 23-652); experiment: ELISA on plates coated with 10 µg/ml HER2-Fc, detection anti-T7 peroxidase conjugate, absorption at 450 nm
T1 construct: Coated at 10 µg/ml on ELISA plates; also called HER2 antigen; immobilised HER2 target antigen (ELISA); not shown: Fc part
Quantity: EC50 (read off the curve)

# Binder, EC50 (read off the curve)
data = [
    ("scFv (TCT)-Cemadotin ADC sample 3 (DAR 11) (scFv, Cemadotin on all but one of the surface lysine residues (11/12), DAR 10.96 by AAA, also called TCT-Cem ADC3; TCT-Cemadotin conjugate 3) scFv: SGSGGSGQVQLVQSGAEVKKPGESLKISCKGSGYSFTSYWIAWVRQMPGKGLEYMGLIYPGDSDTKYSPSFQGQVTISVDKSVSTAYLQWSSLKPSDSAVYFCARHDVGYCSSSNCAAWPEYFQHWGQGTLVTVSSGGGGSGGGGSGGGGSQSVLTQPPSVSAAPGQKVTISCSGSSSNIGNNYVSWYQQLPGTAPKLLIYGHTNRPAGVPDRFSGSKSGTSASLAISGFRSEDEADYYCAAWDDSLSGWVFGGGTKLTVLMASMTGGQQMG", "~40 nM"),
    ("scFv (TCT)-Cemadotin ADC sample 1 (DAR 3.9) (scFv, Cemadotin (from Cemadotin-NHS, compound 2) on lysine residues, average DAR 3.9 by AAA, also called TCT-Cem ADC1; TCT-Cemadotin conjugate 1) scFv: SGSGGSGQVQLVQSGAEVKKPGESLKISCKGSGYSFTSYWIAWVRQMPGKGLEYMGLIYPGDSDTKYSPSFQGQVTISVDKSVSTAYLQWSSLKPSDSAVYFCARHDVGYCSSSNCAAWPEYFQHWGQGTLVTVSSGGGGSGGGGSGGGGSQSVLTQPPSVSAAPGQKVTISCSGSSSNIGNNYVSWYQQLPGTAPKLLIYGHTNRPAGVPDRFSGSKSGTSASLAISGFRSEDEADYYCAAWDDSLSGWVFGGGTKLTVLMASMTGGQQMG", "~4 nM"),
]

For the next question, use this binder.
stdin: Write down EC50 (read off the curve) measured for item scFv (TCT) (scFv, Anti-HER2 C6.5 scFv with residual Ser, GSGGSG linker and C-terminal T7 tag; also called cleaved TCT; unmodified scFv (TCT)) scFv: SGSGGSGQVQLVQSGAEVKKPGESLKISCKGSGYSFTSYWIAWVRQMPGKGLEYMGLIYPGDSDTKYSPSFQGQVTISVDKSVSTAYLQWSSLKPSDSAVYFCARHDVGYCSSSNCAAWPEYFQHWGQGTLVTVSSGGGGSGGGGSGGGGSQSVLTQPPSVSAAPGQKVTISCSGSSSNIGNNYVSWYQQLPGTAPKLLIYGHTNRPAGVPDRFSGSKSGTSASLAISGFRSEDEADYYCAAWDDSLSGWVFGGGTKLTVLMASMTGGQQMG
stdout: 2 to 3 nM
